Test system: P. aeruginosa PAO1
Set-up: unit not given beside the values
Conditions: antibiotic in combination with 1
attribute measured: MICDrug in combo

{"columns": ["compound", "observed"],
 "data": [
  ["C=C[C@]1(C)C[C@@H](OC(=O)CO)[C@]2(C)[C@H](C)CC[C@]3(CCC(=O)[C@H]32)[C@@H](C)[C@@H]1O [Pleuromutilin, reference compound]", "(4)"],
  ["O=C(N[C@H](CO)[C@H](O)c1ccc([N+](=O)[O-])cc1)C(Cl)Cl [Chloramphenicol, reference compound]", "(2)"],
  ["CN[C@H](CC(C)C)C(=O)N[C@H]1C(=O)N[C@@H](CC(N)=O)C(=O)N[C@H]2C(=O)N[C@H]3C(=O)N[C@H](C(=O)N[C@H](C(=O)O)c4cc(O)cc(O)c4-c4cc3ccc4O)[C@H](O)c3ccc(c(Cl)c3)Oc3cc2cc(c3O[C@@H]2O[C@H](CO)[C@@H](O)[C@H](O)[C@H]2O[C@H]2C[C@](C)(N)[C@H](O)[C@H](C)O2)Oc2ccc(cc2Cl)[C@H]1O [Vancomycin, reference compound]", "(8)"]
]}

###

I'd appreciate it if you could supply MIC values for the items below.
Test system: P. aeruginosa PAO200
Settings: P. aeruginosa PAO200, efflux-deficient strain that lacks the MexAB-OprM pump
Positions of bridges follow the written chain, without caps; N, C: chain ends. Non-standard residues stand in square brackets, D forms with d. Residues, ends and D or L forms follow the SMILES beside them. *: point of attachment. Benzoyl(4-Ph) = O=C(c1ccc(-c2ccccc2)cc1)*; Lauroyl = CCCCCCCCCCCC(=O)*; Dab = NCC[C@H](N)C(=O)O
Numbers only, in µg/mL.

The cases that follow already have their MIC on record.
{"columns": ["compound", "MIC, µg/mL"],
 "data": [
  ["CCCCCCCCCCCC(=O)NCC[C@H](NC(=O)CCCCCCCCCCC)C(=O)N[C@H](C(=O)N[C@@H](CCN)C(=O)N[C@H]1CCNC(=O)[C@H]([C@@H](C)O)NC(=O)[C@H](CCN)NC(=O)[C@H](CCN)NC(=O)[C@H](CC(C)C)NC(=O)[C@@H](Cc2ccccc2)NC(=O)[C@H](CCN)NC1=O)[C@@H](C)O [Compound 3, Didodecanoic Acid (Di-C12) Polymyxin] (Lauroyl-[Dab](Lauroyl)T[Dab][Dab][Dab][dF]L[Dab][Dab]T; lactam 4-C)", 32],
  ["CC(C)C[C@@H]1NC(=O)[C@@H](Cc2ccccc2)NC(=O)[C@H](CCN)NC(=O)[C@@H](NC(=O)[C@H](CCN)NC(=O)[C@@H](NC(=O)[C@H](CCNC(=O)c2ccc(-c3ccccc3)cc2)NC(=O)c2ccc(-c3ccccc3)cc2)[C@@H](C)O)CCNC(=O)[C@H]([C@@H](C)O)NC(=O)[C@H](CCN)NC(=O)[C@H](CCN)NC1=O [Compound 5] ({Benzoyl(4-Ph)}-[Dab](Benzoyl(4-Ph))T[Dab][Dab][Dab][dF]L[Dab][Dab]T; lactam 4-C)", 4]
]}

Next up:
Note down MIC recorded for CC(C)C[C@@H]1NC(=O)[C@@H](Cc2ccccc2)NC(=O)[C@H](CCN)NC(=O)[C@@H](NC(=O)[C@H](CCN)NC(=O)[C@@H](N)[C@@H](C)O)CCNC(=O)[C@H]([C@@H](C)O)NC(=O)[C@H](CCN)NC(=O)[C@H](CCN)NC1=O [PMBN, polymyxin B nonapeptide, reference compound] (H-T[Dab][Dab][Dab][dF]L[Dab][Dab]T; lactam 3-C (inferred))
2
